Catalogue of Inhibition readings, one per entry.
system: Plasmodium falciparum; test: GSK_TCMDC: Inhibition of Plasmodium falciparum 3D7 in whole red blood cells, using parasite LDH activity as an index of growth. Test compounds present at 2uM; assay type: functional
EXPERIMENTAL_READOUT: Inhibition (%)

Cc1cnc(Nc2cccc(CCN3CCOCC3)c2)nc1NC(C)C.Cl
97
CN1CCC(N2CCN(Cc3ccc(-c4cccc(-c5nc6cc(F)ccc6[nH]5)c4)cc3)CC2)CC1.O=C(O)C(F)(F)F
100
CC(C)CCN1CCCN(Cc2cccc(C(=O)Nc3ccc(C(C)(C)C)cc3)c2)CC1.O=C(O)C(F)(F)F
85
CC[C@H](NC(=O)c1c(CC2CCN(CC(C)=O)CC2)c(-c2ccccc2)nc2ccccc12)c1ccccc1
97
O=C(N[C@H]1CCN(Cc2ccc(OC3CCN(Cc4ccccc4)CC3)cc2)C1)c1ccc(Cl)c(Cl)c1.O=C(O)C(F)(F)F
90
CCC(c1ccccc1)c1nn2c(-c3cccs3)nnc2s1 (stereo unspecified)
97
Cc1sc(C)c(C(F)(F)F)c1CNCCCNc1cc(=O)c2ccccc2[nH]1.Cl
96
O=C(O)C(F)(F)F.c1cc(CNC2CCCC2)cc(-c2ccc(CNc3ccc4ncccc4c3)cc2)c1
98
COc1ccccc1CNC(=O)c1cc(C2CC2)nc2c1cnn2C(C)C
94
Nc1cc(-c2ccc3ccccc3c2)nc2ccccc12
99
O=C(/C=C/c1ccc(Cl)c(Cl)c1)NCCCCCN1CCCC(CNC(=O)Nc2ccc(Oc3ccccc3)cc2)C1 (stereo unspecified)
99
COc1ccccc1N1CCN(CCCCN(C(=O)Nc2cccc(Cl)c2)C(=O)Nc2cccc(Cl)c2)CC1.Cl
100
O=C(Nc1cccc(C(F)(F)F)c1)NC1CCN(c2ccnc3cc(Cl)ccc23)CC1.O=C(O)C(F)(F)F
100
CCOC(=O)N1CCN(C(=O)Nc2ccc(Cl)cc2)CC1
92
CCCCN(C)CC#Cc1ccc2[nH]c(C)c(Cl)c(=O)c2c1
98
Cc1[nH]c(C)c(-c2ccc(Oc3cccc(Cl)c3)cc2)c(=O)c1Br
98
CC[C@H](NC(=O)c1c(CN2CCC(N3CCCCC3)CC2)c(-c2ccccc2)nc2c(Cl)c(O)ccc12)c1ccccc1.Cl
100
Nc1cccc(CNCc2ccc(-c3ccc(-c4nc5cc(C(F)(F)F)ccc5[nH]4)s3)cc2)c1.O=C(O)C(F)(F)F
100
CN(C(=O)C(C)(C)Oc1ccc(Cl)cc1)C1CCN(CCCCCNC(=O)/C=C/c2ccc(Cl)c(Cl)c2)CC1
96
CC1CCC(C[C@@H](C(=O)N[C@H](C(=O)Nc2nccs2)[C@@H](C)O)[C@H](CCC(F)(F)F)N(O)C=O)CC1 (stereo partly specified)
95
Fc1ccc2[nH]c(-c3ccccc3)nc2c1CN1CCC(N2CCCC2)CC1.O=CO
100
COc1ccc(CNc2nccc3ccc(-c4ccc(N)nc4)cc23)cc1.O=C(O)C(F)(F)F
93
N#Cc1cccc(C(=O)NC2CCN(c3ccnc(Nc4ccc(F)cc4)n3)C2)c1 (stereo unspecified)
98
CC(C)(C)c1ccc(NC(=O)c2ccc(CN3CCCN(Cc4cccc(F)c4)CC3)cc2)cc1.O=C(O)C(F)(F)F
90
N=C(N)NN=CC(=O)Nc1cc([N+](=O)[O-])cc([N+](=O)[O-])c1.O=S(=O)(O)O
100
Cc1ccc(NC(=O)Nc2ccc(Cl)cc2)cc1-c1ccc(C(=O)Nc2ccncc2)cc1
99
COc1ccc(CN2CCCN(Cc3cccc(NC(=O)c4ccc(Cl)c(Cl)c4)c3)CC2)cc1.O=C(O)C(F)(F)F
86
O=C(Nc1ccc(N2CCNCC2)cc1)c1ccn2ncc(-c3cccc(Cl)c3)c2n1
96
NS(=O)(=O)Cc1cccc(-c2ccnc3ccc(-c4cccc(S(N)(=O)=O)c4)cc23)c1
98
COc1ccc(CNC2CCN(C)CC2)cc1-c1ccc(S(=O)(=O)NCCc2ccccn2)c(C)c1.O=C(O)C(F)(F)F
96
O=C(O)C(F)(F)F.O=S(=O)(NCCN1CCCC1)c1cccc(-c2cccc(CNCCc3cccs3)c2)c1
100
CCN(CCCN1CCCCC1)c1cc(C)nc(Nc2cccc(C(F)(F)F)c2C)n1.O=C(O)C(F)(F)F
99
CCOC(=O)c1c(NC(=O)c2ccccc2)sc2c(O)c(CNC3CCCCC3)ccc12
99
CCNc1cc(C(=O)N[C@@H](Cc2ccccc2)[C@H](O)CNCc2cccc(-n3ccnc3)c2)cc(N2CCCC2=O)c1.O=C(O)C(F)(F)F
99
Cc1cccc2nc(-c3cccc(-c4cccc(NC(=O)c5ccoc5)c4)c3)[nH]c12
99
COc1ccc(CN2CCN(Cc3cc(Cl)ccc3O)CC2CCO)c(C)c1C (stereo unspecified)
94
